assay: Pharmacokinetics in moderate hepatic impairment vs matched normal subjects (Example A-13); settings: human, plasma, 400 mg, Cmax, least squares mean, Single Dose 400 mg, Normal;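 also: impaired subjects were Child-Pugh Class B with ascites, compared against healthy volunteers matched for sex, age, weight and smoking, blood sampled before and after dosing on Days 1 and 7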
Endpoint Name: Cmax (ng/mL)
Answer with a number only, understood to be in ng/mL.

Per the records, this molecule ( COC(=O)[C@@H]1CC2=CC(=O)CC[C@]2(C)[C@@]23O[C@@H]2C[C@@]2(C)[C@@H](CC[C@@]24CCC(=O)O4)[C@H]13 ) has Cmax equal to 3810

====

assay: Single dose pharmacokinetics, Japan and Ex-Japan trials (Example A-11); assay type: in vivo, human; conditions: male, human, in vivo, oral, Ex-Japan; single dose, least squares mean; read-out: Vss/F
Endpoint Name: Vd/F
Number plus unit, in that order.

Per the records, this molecule ( COC(=O)[C@@H]1CC2=CC(=O)CC[C@]2(C)[C@@]23O[C@@H]2C[C@@]2(C)[C@@H](CC[C@@]24CCC(=O)O4)[C@H]13 ) has Vd/F equal to 80.6 L
